# Tested on: HeLa
# ASSAY OVERVIEW: Upregulation of MMP9 gene expression in human HeLa cells at 10 uM after 24 hrs by RT-qPCR method
# Assay type: functional, cell-based
The source made the active and inactive calls. The calls are words filed in the database; no cut-off is given here.
QUANTITY MEASURED: Activity

COc1cccc(C(=O)/C=C/c2ccc(C(=O)Nc3nnc(-c4ccc(O)c(O)c4)s3)cc2)c1	Active
O=C(Nc1nnc(-c2ccc(O)c(O)c2)s1)c1ccc(/C=C/C(=O)c2cccs2)cc1	Active
Cc1cccc(C(=O)/C=C/c2ccc(C(=O)Nc3nnc(-c4ccc(O)c(O)c4)s3)cc2)c1	Active
O=C(/C=C/c1ccc(C(=O)Nc2nnc(-c3ccc(O)c(O)c3)s2)cc1)c1ccccc1	Active
